These measurements were taken from PubChem BioAssay AID2825.

# method_description: blockers of yeast NLRP3/ASC/caspase-1 reporter – luminescence, uHTS, primary screen (AID 2825);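 note: plate controls were induced DMSO wells for no effect and uninduced yeast grown without galactose for full effect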
# condition_label: Yeast reconstituted NLRP3/ASC/caspase-1, beta-gal luminescence, 24 h; at 10 µM
Among all 330,000 compounds or so, about 1,300 (0.39%) were called active.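 Rule for the calls: active = inhibition of 50% or more; inactive = inhibition below 50%.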 What follows is part of a selection rich in actives, with near analogues and random picks from the rest.
Outcomes you can answer with include only these: class 1 for active, class 0 for inactive

Cc1cc2ccccn2c1C(C[N+](=O)[O-])c1c(F)cccc1Cl (stereo not given) :: class 1
C[C@]12CC[C@H](O)CC1=C([N+](=O)[O-])CC1C2CC[C@@]2(C)C1CC[C@@H]2O (stereo not given in full) :: class 0
NCCc1ccc(S(=O)(=O)F)cc1 :: class 0
Cc1ccc(-c2nc3ccccc3c(=O)n2-c2ccc(Br)cn2)cc1 :: class 1
Cc1ccc2c(c1)=C/C(=C\c1c(O)[nH]c(=O)[nH]c1=O)C(=O)N=2 :: class 0

q: Answer briefly: the call reported for c1cc2c(cc1[C@H]1OC[C@H]3[C@@H]1CO[C@@H]3c1ccc3c(c1)OCO3)OCO2 in this assay.
a: class 0

q: Answer briefly: the call reported for CNC(=S)N/N=C1\C2CN3CCN(C2)CC1(c1ccccc1)C3 in this assay.
a: class 0

q: Answer briefly: the call reported for C[C@]12CC[C@H](O)C[C@H]1CC[C@@H]1C2CC[C@]2(C)[C@@H](C3=CC(=O)OC3)[C@@H](O)C[C@]12O (stereo not given in full) in this assay.
a: class 0

q: Answer briefly: the call reported for CCCCCCCCCCCCn1ccc(=N)cc1 in this assay.
a: class 1

q: Answer briefly: the call reported for C[C@]12CCC3C(CC[C@H]4C[C@@H](O)CC[C@]34C)C1CC[C@@H]2O (stereo not given in full) in this assay.
a: class 1

* * *

# method_description: blockers of yeast NLRP3/ASC/caspase-1 reporter – luminescence, uHTS, primary screen (AID 2825);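 note: plate controls were induced DMSO wells for no effect and uninduced yeast grown without galactose for full effect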
# condition_label: Yeast reconstituted NLRP3/ASC/caspase-1, beta-gal luminescence, 24 h; at 10 µM; active compounds read high
Screen size: about 330,000 compounds; about 1,300 (0.39%) were called active. Many of the other results were omitted from the sample, so actives are more common in it than they were.
result_type: inhibition (%)
Please state the figure in %; there is no need to write the unit.

N=c1ccccn1Cc1ccccc1 :: 1.04
O=C(C1CC(=O)N(C2CCCC2)C1)N1CCC2(CC1)OCCO2 (stereo not drawn) :: 25.3

q: Assign inhibition to the following record: COC(=O)C1=C(c2ccc3ccccc3c2)C[C@@H]2CC[C@H]1N2C(=O)NCCO
a: -5.73
